- STUDY_TARGET: ACE (from rabbit lungs) (Oryctolagus cuniculus)
- Construct: ACE (0.1 U, from rabbit lungs, purity > 99.7%, CAS: 9015-82-1) was obtained from Sigma-Aldrich; purchased Sigma-Aldrich (St. Louis, MO, USA); host or cells: rabbit lung tissue
- Sequence (P12822 34-1310): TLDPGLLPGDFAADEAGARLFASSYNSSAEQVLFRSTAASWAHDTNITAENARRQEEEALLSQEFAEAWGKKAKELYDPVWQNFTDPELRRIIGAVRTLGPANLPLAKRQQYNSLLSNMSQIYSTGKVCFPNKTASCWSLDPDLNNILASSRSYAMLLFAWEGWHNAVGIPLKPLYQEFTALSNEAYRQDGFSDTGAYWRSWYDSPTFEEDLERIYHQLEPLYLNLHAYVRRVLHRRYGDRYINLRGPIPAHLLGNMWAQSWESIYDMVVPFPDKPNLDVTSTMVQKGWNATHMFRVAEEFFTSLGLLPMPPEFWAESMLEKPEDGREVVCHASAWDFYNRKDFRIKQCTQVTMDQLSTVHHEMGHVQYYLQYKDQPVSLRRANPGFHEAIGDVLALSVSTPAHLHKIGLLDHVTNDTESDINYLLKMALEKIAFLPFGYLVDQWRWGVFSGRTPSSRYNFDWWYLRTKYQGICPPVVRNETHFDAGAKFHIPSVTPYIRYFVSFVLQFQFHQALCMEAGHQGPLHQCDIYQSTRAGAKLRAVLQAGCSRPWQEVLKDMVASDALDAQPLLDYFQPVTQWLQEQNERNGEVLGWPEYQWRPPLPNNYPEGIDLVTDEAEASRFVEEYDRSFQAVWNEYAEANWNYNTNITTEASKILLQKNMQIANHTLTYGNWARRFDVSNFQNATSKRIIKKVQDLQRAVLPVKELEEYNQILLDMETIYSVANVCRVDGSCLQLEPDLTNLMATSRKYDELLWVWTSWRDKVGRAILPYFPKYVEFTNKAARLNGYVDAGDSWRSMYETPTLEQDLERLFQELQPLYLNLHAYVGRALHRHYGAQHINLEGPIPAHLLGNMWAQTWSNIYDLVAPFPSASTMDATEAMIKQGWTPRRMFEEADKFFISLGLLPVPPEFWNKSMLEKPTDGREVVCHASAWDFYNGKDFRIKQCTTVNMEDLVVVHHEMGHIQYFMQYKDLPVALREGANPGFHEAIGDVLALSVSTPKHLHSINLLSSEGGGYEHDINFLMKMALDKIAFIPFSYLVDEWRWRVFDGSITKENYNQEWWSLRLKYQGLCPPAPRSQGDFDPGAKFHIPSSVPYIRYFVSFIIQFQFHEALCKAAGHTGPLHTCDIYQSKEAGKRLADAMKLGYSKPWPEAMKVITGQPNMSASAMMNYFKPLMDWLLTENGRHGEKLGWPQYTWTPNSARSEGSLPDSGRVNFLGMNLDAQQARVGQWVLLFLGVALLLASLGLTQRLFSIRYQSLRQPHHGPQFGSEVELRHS
- PROCEDURE_SUMMARY: ACE inhibitory ability (hippuric acid method)
- Type: biochemical
- STUDY_CONDITIONS: hippuric acid method, HHL substrate, absorbance at 228 nm; N = 3; read-out: ACE inhibitory activity (IC50)
Where no end group is shown, it is not given here.
RECORDED_METRIC: IC50
Provide a numeric answer, followed by its unit.

>  <SUBSTANCE>
PMYGGGMV–ferrous chelate: chelate prepared by reacting the peptide with FeCl2 at pH 6.5 (also: ferrous iron chelate (reaction with FeCl2))

>  <IC50>
116 µM

$$$$

# context switch: different substance, same IC50
Supply reported IC50 belonging to this substance: "PMYGGGMV"
121 µM
